# test.target: Polyadenylate-binding protein 1 (Homo sapiens) (UniProt P11940)
# Sequence (P11940 whole entry, looked up): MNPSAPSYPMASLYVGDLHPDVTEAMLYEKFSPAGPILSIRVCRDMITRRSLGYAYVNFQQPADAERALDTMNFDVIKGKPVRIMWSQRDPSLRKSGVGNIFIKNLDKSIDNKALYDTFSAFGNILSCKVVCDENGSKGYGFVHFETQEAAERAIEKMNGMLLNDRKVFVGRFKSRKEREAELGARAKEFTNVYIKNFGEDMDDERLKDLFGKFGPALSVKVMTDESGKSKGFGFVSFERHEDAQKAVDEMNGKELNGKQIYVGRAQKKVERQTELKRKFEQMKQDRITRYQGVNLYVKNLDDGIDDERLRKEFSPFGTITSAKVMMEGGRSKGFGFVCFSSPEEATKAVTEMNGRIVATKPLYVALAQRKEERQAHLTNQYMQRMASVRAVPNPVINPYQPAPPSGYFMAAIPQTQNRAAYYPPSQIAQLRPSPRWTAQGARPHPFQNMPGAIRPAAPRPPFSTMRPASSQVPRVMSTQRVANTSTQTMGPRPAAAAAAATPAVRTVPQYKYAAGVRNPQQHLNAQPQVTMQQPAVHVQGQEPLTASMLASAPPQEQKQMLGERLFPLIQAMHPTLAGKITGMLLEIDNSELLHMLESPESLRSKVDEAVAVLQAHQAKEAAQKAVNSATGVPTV
# measurement.notes: PABP poly(A) RNA binding inhibitors, primary screen, biochemical, fluorescence polarization, uHTS (AID 2014);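 further: calls also rest on retests at 20 µM and on dose response follow-up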
# protocol.conditions: confirmation repeats, at 20 µM, stronger effect = higher value
The whole screen tested about 290,000 compounds, of which about 3,000 (1%) were called active. This is one part of a sample in which actives are shown more often than they occur.
Would you please tag the item Condition met when its inhibition is 60% or above, and Condition not met when it is below?

compound | test.target | label
COc1cccc(C2Nc3cccc4cccc(c34)N2)c1 | Polyadenylate-binding protein 1 (Homo sapiens) (UniProt P11940) | Condition met
O=C(O)C(c1ccccc1)N1C(=O)/C(=C\c2ccc(-c3cccc(Cl)c3)o2)SC1=S (stereo not drawn) | Polyadenylate-binding protein 1 (Homo sapiens) (UniProt P11940) | Condition met
Cc1cc(/C=C2/C(=N)N3C(=NC2=O)SN=C3S(C)(=O)=O)c(C)n1-c1ccccc1 | Polyadenylate-binding protein 1 (Homo sapiens) (UniProt P11940) | Condition not met
Cc1ccc(C(=O)Oc2coc(CSc3nnc(NC(=O)c4cccs4)s3)cc2=O)cc1C | Polyadenylate-binding protein 1 (Homo sapiens) (UniProt P11940) | Condition met
COc1ccc(C(CNC(=O)c2ccc(S(=O)(=O)Nc3ccccc3F)cc2)N(C)C)cc1 (stereo not drawn) | Polyadenylate-binding protein 1 (Homo sapiens) (UniProt P11940) | Condition met
O=C(COC(=O)CCC(=O)c1cccs1)NCc1ccco1 | Polyadenylate-binding protein 1 (Homo sapiens) (UniProt P11940) | Condition not met
O=C(CN1C2=NCCN2c2ccccc21)c1cccs1 | Polyadenylate-binding protein 1 (Homo sapiens) (UniProt P11940) | Condition met
Cc1cc(=O)n2[nH]c(-c3sccc3-n3c(C)ccc3C)cc2n1 | Polyadenylate-binding protein 1 (Homo sapiens) (UniProt P11940) | Condition met
CCN(CC)c1ccc2oc(=O)c(C)nc2c1 | Polyadenylate-binding protein 1 (Homo sapiens) (UniProt P11940) | Condition met
CCN1CCN(CCNC(=O)c2ccc(/C=C3/Sc4ccccc4N(Cc4cccc(C)c4)C3=O)cc2)CC1 | Polyadenylate-binding protein 1 (Homo sapiens) (UniProt P11940) | Condition met
Cn1c2ccccc2c(=O)c2c(=O)n(Cc3ccco3)c(COc3ccccc3)nc21 | Polyadenylate-binding protein 1 (Homo sapiens) (UniProt P11940) | Condition not met
Cc1cccc(N2CCN(C(=O)/C=C/c3ccco3)CC2)c1C | Polyadenylate-binding protein 1 (Homo sapiens) (UniProt P11940) | Condition met
O=C(c1ccc(CS(=O)(=O)c2ccccc2)o1)N1CCN(c2ccccc2)CC1 | Polyadenylate-binding protein 1 (Homo sapiens) (UniProt P11940) | Condition met
Oc1c(Cl)cc(Cl)c(Cl)c1Cc1c(O)c(Cl)cc(Cl)c1Cl | Polyadenylate-binding protein 1 (Homo sapiens) (UniProt P11940) | Condition met
O=C(CCCN1C(=O)/C(=C/c2ccco2)SC1=S)Nc1ccccc1 | Polyadenylate-binding protein 1 (Homo sapiens) (UniProt P11940) | Condition not met
O=C(CCS(=O)(=O)c1ccc(Br)cc1)NCCc1ccc(Cl)cc1 | Polyadenylate-binding protein 1 (Homo sapiens) (UniProt P11940) | Condition not met
O=C(OCc1cc(Cl)ccc1OC(F)F)c1cccnc1 | Polyadenylate-binding protein 1 (Homo sapiens) (UniProt P11940) | Condition met
Brc1ccc(CSc2ccc(-c3ccco3)nn2)cc1 | Polyadenylate-binding protein 1 (Homo sapiens) (UniProt P11940) | Condition not met
COc1cc(/C=C(\C#N)C(=O)Nc2ccc3ccccc3c2)c([N+](=O)[O-])cc1OC | Polyadenylate-binding protein 1 (Homo sapiens) (UniProt P11940) | Condition met
C[n+]1ccc(C(=O)NCc2ccccc2)cc1 | Polyadenylate-binding protein 1 (Homo sapiens) (UniProt P11940) | Condition met
CN1CCCC(OC(=O)COc2ccc(Br)cc2)C1 (stereo not drawn) | Polyadenylate-binding protein 1 (Homo sapiens) (UniProt P11940) | Condition not met
Fc1ccccc1CNC(=S)Nc1ccc(Cl)cc1 | Polyadenylate-binding protein 1 (Homo sapiens) (UniProt P11940) | Condition met
CCOc1cnc(C(=O)NNC(=O)c2ccccc2Br)o1 | Polyadenylate-binding protein 1 (Homo sapiens) (UniProt P11940) | Condition met
C=CCNc1nnc(SCC(=O)N2CCCCC2)c2ccccc12 | Polyadenylate-binding protein 1 (Homo sapiens) (UniProt P11940) | Condition not met
O=C(COc1ccc(/C=N/NC(=O)c2ccc(O)cc2)cc1)Nc1ccc([N+](=O)[O-])cc1 | Polyadenylate-binding protein 1 (Homo sapiens) (UniProt P11940) | Condition met
COc1ccc(CN2CCCC(CNC(=O)c3ccc(F)cc3)C2)cc1OC (stereo not drawn) | Polyadenylate-binding protein 1 (Homo sapiens) (UniProt P11940) | Condition met
N#CC1=C(N)C(C#N)(C#N)[C@H](c2ccsc2)[C@H]2COCC=C12 | Polyadenylate-binding protein 1 (Homo sapiens) (UniProt P11940) | Condition not met
Cn1c(N)cc(-c2ccc(F)cc2)c(C#N)c1=O | Polyadenylate-binding protein 1 (Homo sapiens) (UniProt P11940) | Condition met
Cc1ccc(C(C[N+](=O)[O-])c2c(C)cc3ccccn23)cc1 (stereo not drawn) | Polyadenylate-binding protein 1 (Homo sapiens) (UniProt P11940) | Condition met
COc1ccc(Nc2ccc([N+](=O)[O-])cn2)cn1 | Polyadenylate-binding protein 1 (Homo sapiens) (UniProt P11940) | Condition not met
C[N+](C)(C)CCNC(=O)c1cc[n+](Cc2ccccc2)c(/C=N/O)c1 | Polyadenylate-binding protein 1 (Homo sapiens) (UniProt P11940) | Condition met
O=C(COC(=O)C12CC3CC(CC(C3)C1)C2)NCc1ccco1 | Polyadenylate-binding protein 1 (Homo sapiens) (UniProt P11940) | Condition met
Cc1ccc(Cc2cnc(N)s2)o1 | Polyadenylate-binding protein 1 (Homo sapiens) (UniProt P11940) | Condition not met
NS(=O)(=O)c1ccc(NC(=S)N2CCCC2)cc1 | Polyadenylate-binding protein 1 (Homo sapiens) (UniProt P11940) | Condition not met
CCN(CC(=O)NCc1cccs1)C(=O)c1cccc(S(=O)(=O)Nc2ccccc2OC)c1 | Polyadenylate-binding protein 1 (Homo sapiens) (UniProt P11940) | Condition met
Cc1c(C2=CCN(S(=O)(=O)c3ccc(Cl)cc3)CC2)c2ccccc2n1C | Polyadenylate-binding protein 1 (Homo sapiens) (UniProt P11940) | Condition met
Cc1ccccc1NC(=O)CN1C(=O)N/C(=C\c2cccn2-c2cccc(C(=O)O)c2)C1=O | Polyadenylate-binding protein 1 (Homo sapiens) (UniProt P11940) | Condition not met
N#Cc1ccccc1CN1C(=O)S/C(=C/c2cccn2-c2cccc(C(=O)O)c2)C1=O | Polyadenylate-binding protein 1 (Homo sapiens) (UniProt P11940) | Condition met
NC(=O)c1c(NC(=O)CSc2nnc(-c3ccco3)n2N)sc2c1CCCC2 | Polyadenylate-binding protein 1 (Homo sapiens) (UniProt P11940) | Condition met
Nc1ccc(S(=O)(=O)NC(=O)c2ccccc2)cc1 | Polyadenylate-binding protein 1 (Homo sapiens) (UniProt P11940) | Condition met
Cc1ccc(OCC(=O)c2cc(C)n(Cc3ccco3)c2C)c([N+](=O)[O-])n1 | Polyadenylate-binding protein 1 (Homo sapiens) (UniProt P11940) | Condition not met
